This listing pairs molecules with measured IC90 MSM ATCC607.
Test system: M. Smegmatis (ATCC607)
Test: In-vitro anti-bacterial activity against strain M. Smegmatis ATCC607
Type: cell-based
Details: 90% inhibitory concentration for bacterial growth; M. Smegmatis ATCC607; 48 hours, Alamar Blue fluorescence
Experimental: D.2. In-Vitro Method for Testing Compounds for Anti-Bacterial Activity Against Strain M. Smegmatis ATCC607. Flat-bottom, sterile 96-well plastic microtiter plates were filled with 180 μl of sterile deionized water, supplemented with 0.25% BSA. […] At the end of incubation, two days after inoculation, the bacterial growth was quantitated fluorometrically. […]

molecule: COc1nc2ccc(-c3ccoc3)cc2cc1C(O)(CCCCN(C)C)c1cccc2ccccc12 (centres unmarked) [Compound 11]
IC90 MSM ATCC607 / µg/mL: 7.62
--
molecule: COc1nc2ccc(-c3cccs3)cc2cc1C(O)(CCCN(C)C)c1cccc2ccccc12 (centres unmarked) [Compound 13]
IC90 MSM ATCC607 / µg/mL: 1.53
--
molecule: COc1nc2ccc(-c3cccnc3)cc2cc1C(O)(CCCCN(C)C)c1cccc2ccccc12 (centres unmarked) [Compound 17]
IC90 MSM ATCC607 / µg/mL: 49.16
--
molecule: COc1nc2ccc(-c3cccs3)cc2cc1C(O)(CCCCCN(C)C)c1cccc2ccccc12 (centres unmarked) [Compound 15]
IC90 MSM ATCC607 / µg/mL: 45.52
--
molecule: COc1nc2ccc(-c3cccnc3)cc2cc1C(O)(CCCN(C)C)c1cccc2ccccc12 (centres unmarked) [Compound 16]
IC90 MSM ATCC607 / µg/mL: 1.51
--
molecule: COc1nc2ccc(-c3cc4ccccc4o3)cc2cc1C(O)(CCCCCN(C)C)c1cccc2ccccc12 (centres unmarked) [Compound 20]
IC90 MSM ATCC607 / µg/mL: 1.72
--
molecule: COc1ccccc1-c1ccc2nc(OC)c(C(O)(CCCCCN(C)C)c3cccc4ccccc34)cc2c1 (centres unmarked) [Compound 9]
IC90 MSM ATCC607 / µg/mL: 8.47
--
molecule: COc1nc2ccc(-c3cccs3)cc2cc1C(O)(CCCCN(C)C)c1cccc2ccccc12 (centres unmarked) [Compound 14]
IC90 MSM ATCC607 / µg/mL: 15.71

###

Reported IC90 MSM ATCC607 values for the following molecules.
system: M. Smegmatis (ATCC607); assay: In-vitro anti-bacterial activity against strain M. Smegmatis ATCC607; format: cell-based; details: 90% inhibitory concentration for bacterial growth; M. Smegmatis ATCC607; 48 hours, Alamar Blue fluorescence
quantity: IC90 MSM ATCC607 (µg/mL)

molecule: COc1nc2ccc(-c3ccoc3)cc2cc1C(O)(CCCCCN(C)C)c1cccc2ccccc12 (stereo not shown) [Compound 12]
assayedTarget: M. Smegmatis (ATCC607)
quantity: IC90 MSM ATCC607
readoutValue: 1.56
//
molecule: COc1nc2ccc(-c3cccnc3)cc2cc1C(O)(CCCCCN(C)C)c1cccc2ccccc12 (stereo not shown) [Compound 18]
assayedTarget: M. Smegmatis (ATCC607)
quantity: IC90 MSM ATCC607
readoutValue: 8.01
//
molecule: COc1ccccc1-c1ccc2nc(OC)c(C(O)(CCCCN(C)C)c3cccc4ccccc34)cc2c1 (stereo not shown) [Compound 8]
assayedTarget: M. Smegmatis (ATCC607)
quantity: IC90 MSM ATCC607
readoutValue: 6.55
//
molecule: COc1nc2ccc(-c3cc4ccccc4o3)cc2cc1C(O)(CCCN(C)C)c1cccc2ccccc12 (stereo not shown) [Compound 19]
assayedTarget: M. Smegmatis (ATCC607)
quantity: IC90 MSM ATCC607
readoutValue: 3.26
//
molecule: COc1nc2ccc(Br)cc2cc1C(O)(CCCCN(C)C)c1cccc2ccccc12 (stereo not shown) [Compound 2]
assayedTarget: M. Smegmatis (ATCC607)
quantity: IC90 MSM ATCC607
readoutValue: 7.82
//
molecule: COc1nc2ccc(-c3ccccc3)cc2cc1C(O)(CCCCN(C)C)c1cccc2ccccc12 (stereo not shown) [Compound 5]
assayedTarget: M. Smegmatis (ATCC607)
quantity: IC90 MSM ATCC607
readoutValue: 7.78
//
molecule: COc1ccccc1-c1ccc2nc(OC)c(C(O)(CCCN(C)C)c3cccc4ccccc34)cc2c1 (stereo not shown) [Compound 7]
assayedTarget: M. Smegmatis (ATCC607)
quantity: IC90 MSM ATCC607
readoutValue: 1.60
//
molecule: COc1nc2ccc(-c3ccoc3)cc2cc1C(O)(CCCN(C)C)c1cccc2ccccc12 (stereo not shown) [Compound 10]
assayedTarget: M. Smegmatis (ATCC607)
quantity: IC90 MSM ATCC607
readoutValue: 1.48
//
molecule: COc1nc2ccc(Br)cc2cc1C(O)(CCCCCN(C)C)c1cccc2ccccc12 (stereo not shown) [Compound 3]
assayedTarget: M. Smegmatis (ATCC607)
quantity: IC90 MSM ATCC607
readoutValue: 11.36
//
molecule: COc1nc2ccc(-c3ccccc3)cc2cc1C(O)(CCCCCN(C)C)c1cccc2ccccc12 (stereo not shown) [Compound 6]
assayedTarget: M. Smegmatis (ATCC607)
quantity: IC90 MSM ATCC607
readoutValue: 6.35
